Where these numbers come from: ChEMBL document CHEMBL1201862

Test system: OVCAR-3
Assay: NCI tumour cell line growth inhibition, 48 h
The source made the active and inactive calls. Cut-off read from the data, not from the text of the source: active = GI50 up to about 1.1 µM and inactive = higher.
measurement.kind: GI50

| compound | assay.result |
| --- | --- |
| COC(=O)C1Cc2c([nH]c3ccccc23)C(c2ccccc2O)N1Cc1ccccc1 (stereo not given) | 27.7 µM (inactive) |
| Cc1cc(C)nc(NS(=O)(=O)c2ccc(NC(=O)c3cc([N+](=O)[O-])cc([N+](=O)[O-])c3)cc2)n1 | 30.5 µM (inactive) |
| c1ccc(/C(=N/Nc2ccncn2)c2ccccn2)cc1 | 6.78 µM (inactive) |

// recorded GI50 for Cc1ccc(C(=O)Nc2ccc(S(=O)(=O)O)c3cc(S(=O)(=O)O)cc(S(=O)(=O)O)c23)cc1N : > 100 µM (inactive)

// recorded GI50 for CC(C)(C)c1cc(CCC(=O)Nc2ccc(Cl)cc2Cl)nc(N)n1 : > 100 µM (inactive)

// recorded GI50 for O=C(c1ccccc1)C1C(c2ccccc2)N1S(=O)(=O)c1ccccc1 (stereo not given) : > 100 µM (inactive)

// recorded GI50 for Clc1nc2c(N3CCCC3)nc(N3CCNCC3)nc2[nH]1 : 18 µM (inactive)

// recorded GI50 for Oc1cn(-c2ccc(Cl)cc2)nc1-c1nnc(Nc2ccccc2)o1 : 31.8 µM (inactive)

// recorded GI50 for CCOC(=O)C1Cc2c(cc3c4c(cccc24)N(C(C)=O)C3)N(C)C1 (stereo not given) : 1.44 µM (inactive)

// recorded GI50 for CCOC(=O)/C=C/C(Br)=C(Br)/C=C/C(=O)OCC : 12.1 µM (inactive)
